Collected EC50, CellTiter-Blue viability values appear next to each entry.
tested on: BT-549; details: 72 h
Return type: number; implicit unit nM.

Some molecules with recorded EC50, CellTiter-Blue viability:
[[record]]
record_smiles = "C[C@@H]1C=C2C(=O)O[C@@H]3CC[C@H](C1)[C@]23O"
endpoint_label = "EC50, CellTiter-Blue viability"
recorded_number = 5580

[[record]]
record_smiles = "COC1=CC(c2cc3ccccc3[nH]2)=N/C1=C\\c1[nH]c(C)cc1C"
endpoint_label = "EC50, CellTiter-Blue viability"
recorded_number = 192

[[record]]
record_smiles = "CC(C)C[C@H](NC(=O)[C@H](Cc1ccccc1)NC(=O)c1cnccn1)B(O)O"
endpoint_label = "EC50, CellTiter-Blue viability"
recorded_number = 7.83


What EC50, CellTiter-Blue viability appears in the records for this molecule with BT-549? C[C@@]1(C(=O)Nc2ccc(F)nc2)CCCN1c1nc(Nc2cc(C3CC3)n[nH]2)c2cccn2n1
1310

====

system: HCC1143; test: drug sensitivity score (DSS), CellTiter-Blue viability (DSS (AUC-based score)); higher = stronger viability inhibition; extreme values may be limits of the assay; settings: incubation time: 72 h
Note to self: values exactly at 10 are yes (1). So drug sensitivity score at or above 10 is yes (1), below is no (0).

Known results for molecules:
[[record]]
molecule = "CC(C)C[C@H](NC(=O)[C@H](Cc1ccccc1)NC(=O)c1cnccn1)B(O)O [Bortezomib]"
qualitative_label = "yes (1)"

[[record]]
molecule = "C#Cc1cccc(Nc2ncnc3cc(OC)c(OCCCCCCC(=O)NO)cc23)c1 [CUDC-101]"
qualitative_label = "yes (1)"

[[record]]
molecule = "COC1=CC(c2cc3ccccc3[nH]2)=N/C1=C\\c1[nH]c(C)cc1C [Obatoclax]"
qualitative_label = "no (0)"

[[record]]
molecule = "COc1c(C)cnc(Cn2cnc3c(Cl)nc(N)nc32)c1C [BIIB021]"
qualitative_label = "yes (1)"


Could you verify whether the entry O=C(c1ccc(OCCN2CCCCC2)cc1)c1c(-c2ccc(O)cc2)sc2cc(O)ccc12 [Raloxifene] shows drug sensitivity score of no less than 10?
no (0)

Input O=c1[nH]cc(F)c(=O)[nH]1 [Fluorouracil]
no (0)

====

system: BT-549; assay: normalised response (% of control), CellTiter-Glo; higher = more viable cells (100 = DMSO, 0 = benzethonium chloride kill control); conditions: incubation time: 72 h
endpoint-label: normalised response (%)
Give just the numeric value; % need not be written.

The following molecules have reported results that may help.
[[record]]
molecule = "FC(F)c1nc2ccccc2n1-c1nc(N2CCOCC2)nc(N2CCOCC2)n1 [ZSTK474] (10000 nM)"
recorded_number = 21.2

[[record]]
molecule = "C[C@@H]1C=C2C(=O)O[C@@H]3CC[C@H](C1)[C@]23O [Galiellalactone] (50000 nM)"
recorded_number = 44.3

[[record]]
molecule = "Cn1cnc2c(F)c(Nc3ccc(Br)cc3F)c(C(=O)NOCCO)cc21 [MEK-162] (1000 nM)"
recorded_number = 92.7

[[record]]
molecule = "CCS(=O)(=O)c1cccc(-c2cc(C(=O)NC3CCN(C)CC3)c(C)c3[nH]c4ncc(C)cc4c23)c1 [TAK-901] (1000 nM)"
recorded_number = 28.7

[[record]]
molecule = "O=C(c1ccc(OCCN2CCCCC2)cc1)c1c(-c2ccc(O)cc2)sc2cc(O)ccc12 [Raloxifene] (10000 nM)"
recorded_number = 70.7


Which normalised response is reported for this molecule? CC(C)(C)c1cc(NC(=O)Nc2ccc(-c3cn4c(n3)sc3cc(OCCN5CCOCC5)ccc34)cc2)no1 [Quizartinib] (1000 nM)
91.7

Can you handle COc1ncc(-c2ccc3nccc(-c4ccnnc4)c3c2)cc1NS(=O)(=O)c1ccc(F)cc1F (1000 nM) next?
13.9

Here is the next molecule: Cc1cc(C(C)Nc2ccccc2)c2nc(N3CCOCC3)cc(=O)n2c1 (configuration not stated) [TGX-221] (10000 nM)
78.7

Now the molecule C#Cc1cccc(Nc2ncnc3cc(OC)c(OCCCCCCC(=O)NO)cc23)c1 [CUDC-101] (10000 nM)
18

C[C@@]1(C(=O)Nc2ccc(F)nc2)CCCN1c1nc(Nc2cc(C3CC3)n[nH]2)c2cccn2n1 (10000 nM) ?
12.7

Similarly, CCOc1cc2ncc(C#N)c(Nc3ccc(OCc4ccccn4)c(Cl)c3)c2cc1NC(=O)/C=C/CN(C)C [Neratinib] (1000 nM) ?
56.1

Another molecule to check: Cn1c(=O)c(F)c(Nc2ccc(I)cc2F)c2c(=O)n(C[C@@H](O)CO)cnc21 [TAK-733] (1000 nM)
84

Where do these numbers come from? They come from the supplement of paper PMC4862054.
